Tested on: rats
Assay: Pharmacological characteristics at equivalent doses (2×ED50) in rats
Details: 2×ED50, tail vein, time of LORR
So basically, if Onset time comes in under 0.3 min it's TRUE, and if it's 0.3 min or more it's FALSE.

Use the examples below as a reference point.
CCCC1(OC(=O)c2cncn2[C@H](C)c2ccccc2)COC1 [Compound B19]: FALSE
C[C@H](c1ccccc1)n1cncc1C(=O)OCC1CCC1 [Compound A8]: FALSE
COCC1(COC(=O)c2cncn2[C@H](C)c2ccccc2)CCC1 [Compound A11]: TRUE

From here, focus on the item given below.
# check: Onset time < 0.3 min for C#CC(C)(C)OC(=O)c1c(F)ncn1[C@H](C)c1ccccc1 [Compound E25]
TRUE

====

Tested on: rats
Conditions: continuous tail vein infusion at 2×MIR, LORR maintained 1 hour, Table D4
READOUT_KIND: Onset time

C/C=C/C1(OC(=O)c2cncn2[C@H](C)c2ccccc2)COC1: 3 to 4 min
CCOC(=O)c1cncn1[C@H](C)c1ccccc1 [Etomidate, reference compound]: 4 to 5 min
C=C=CC1(OC(=O)c2cncn2[C@H](C)c2ccccc2)CCCCC1: 2 to 3 min
C=C=CC1(OC(=O)c2cncn2[C@H](C)c2ccccc2)CCC1: 2 to 3 min

Form field: reported Onset time of `C=C=CC1(OC(=O)c2cncn2[C@H](C)c2ccccc2)COC1`
2 to 3 min

Also, `C=CC#CC(C)(C)OC(=O)c1cncn1[C@H](C)c1ccccc1` please.
2 to 3 min

Also, C#CC1(OC(=O)c2cncn2[C@H](C)c2ccccc2)CCC1 [Compound D1] please.
3 to 4 min

Also, `CC#CC1(OC(=O)c2cncn2[C@H](C)c2ccccc2)CCCCC1` please.
2 to 3 min

Also, `C=C=CC1(OC(=O)c2cncn2[C@H](C)c2ccccc2)CSC1` please.
3 to 4 min

====

Tested on: secretion of cortisol, H295R cell line
Test: cells
Format: cell-based
Conditions: H295R cell line; 0.1-10000 nM; HPLC-MS/MS; Table D3
Reported Cortisol as an indicator to determine the presence of inhibition values are given for each entry in this list.
Answer using only a numeral; do not append any unit.

C/C=C/C1(OC(=O)c2cncn2[C@H](C)c2ccccc2)CCC1 [Compound D20]: 0
C#CC(C)OC(=O)c1cncn1[C@H](C)c1ccccc1 (stereo partly drawn) [Compound D14]: 0
C=C=CC1(OC(=O)c2cncn2[C@H](C)c2ccccc2)CCCCC1 [Compound D43]: 0
C=CCC1(OC(=O)c2cncn2[C@H](C)c2ccccc2)COC1 [Compound D41]: 0

Form field: reported Cortisol as an indicator to determine the presence of inhibition of C=C=CC1(OC(=O)c2cncn2[C@H](C)c2ccccc2)CSC1 [Compound D28]
0

Also, C=C=CC1(OC(=O)c2cncn2[C@H](C)c2ccccc2)CCC1 [Compound D13] please.
0

Also, CC#CC1(OC(=O)c2cncn2[C@H](C)c2ccccc2)CCCCC1 [Compound D40] please.
0

Also, C=CC#CC(C)(C)OC(=O)c1cncn1[C@H](C)c1ccccc1 [Compound D37] please.
0

====

Test system: rats
Assay: Pharmacological characteristics at equivalent doses (2×ED50) in rats
Conditions: 2×ED50, tail vein
READOUT_KIND: Adverse reactions: Hindlimb rigidity (incidence)

CC#CC1(OC(=O)c2cncn2[C@H](C)c2ccccc2)COC1: Hindlimb rigidity (1/8),
CCC#CC(C)OC(=O)c1cncn1[C@H](C)c1ccccc1 (some centres unmarked): Hindlimb rigidity (2/8),
C=C=CC1(OC(=O)c2cncn2[C@H](C)c2ccccc2)COC1: Hindlimb rigidity (2/8),
CC#CC1(OC(=O)c2cncn2[C@H](C)c2ccccc2)CCCCC1: Hindlimb rigidity (1/8),

Now for the molecule whose Adverse reactions: Hindlimb rigidity (incidence) we want.
Form field: reported Adverse reactions: Hindlimb rigidity (incidence) of `C=C=CC1(OC(=O)c2cncn2[C@H](C)c2ccccc2)CCCCC1`
Hindlimb rigidity (2/8),

====

Reported Minimal lethal dose values are given for each entry in this list.
System: rats
Experimental: Adult male Sprague-Dawley rats (250-300 g) were selected for the experiment. […] The anesthesia effects of the compounds were assessed in rats using a LORR assay and a period >30 s was considered as an indicator of general anesthesia. Then the up and down method was used to determine 50% effective dose (ED50). The drugs were administered through the tail vein of rats in a volume of 0.6 mL and at a rate of 0.1 mL/s.

# count of solved cases: 8
C=C=CC1(OC(=O)c2cncn2[C@H](C)c2ccccc2)CSC1 [Compound D28]: >10 mg/kg
CC(=O)C1(OC(=O)c2cncn2[C@H](C)c2ccccc2)CC1 [Compound C1]: >20 mg/kg
C=CC#CC(C)OC(=O)c1c(F)ncn1[C@H](C)c1ccccc1 (stereo partly shown) [Compound E20]: >5 mg/kg
C[C@H](c1ccccc1)n1cncc1C(=O)OCC1(C)CSC1 [Compound B8]: >10 mg/kg
C#CC1(OC(=O)c2cncn2[C@H](C)c2ccccc2)CSC1 [Compound D27]: >10 mg/kg
CCOC(=O)c1c(Cl)nc(Cl)n1[C@H](C)c1ccccc1 [Compound E129]: >9 mg/kg
C[C@H](c1ccccc1)n1cncc1C(=O)OCC1(C2CO2)CCC1 (stereo partly shown) [Compound A21]: >5 mg/kg
C[C@H](c1ccccc1)n1cncc1C(=O)OCC1(C)COC1 [Compound B5]: >10 mg/kg

Form field: reported Minimal lethal dose of C=C=CC1(OC(=O)c2c(F)ncn2[C@H](C)c2ccccc2)COC1 [Compound E37]
>0.6 mg/kg

Also, CC(=O)C1(OC(=O)c2cncn2[C@H](C)c2ccccc2)COC1 [Compound C3] please.
>10 mg/kg

Also, C[C@H](c1ccccc1)n1cncc1C(=O)OCC1CC(F)(F)C1 [Compound A12] please.
>10 mg/kg

Also, C#CC1(OC(=O)c2cncn2[C@H](C)c2ccccc2)COC1 [Compound D3] please.
>8 mg/kg

Also, C[C@H](c1ccccc1)n1cncc1C(=O)OC1CCC1 [Compound A17] please.
>6 mg/kg

Also, C[C@H](c1ccccc1)n1cncc1C(=O)OCC1CCC1 [Compound A8] please.
>2 mg/kg

Also, CCCC1(OC(=O)c2cncn2[C@H](C)c2ccccc2)COC1 [Compound B19] please.
>20 mg/kg

Also, C[C@H](c1ccccc1)n1cncc1C(=O)OCC1(C(F)F)CCC1 [Compound A19] please.
>5 mg/kg

Also, C[C@H](c1ccccc1)n1cnc(F)c1C(=O)OC1(C)CCC1 [Compound E27] please.
>6 mg/kg

Also, CCCC(C)(C)OC(=O)c1c(F)ncn1[C@H](C)c1ccccc1 [Compound E29] please.
>6 mg/kg

Also, C[C@H](c1ccccc1)n1cncc1C(=O)OC(C)(C)C [Compound C18] please.
>5 mg/kg

====

Test system: rats
Conditions: continuous tail vein infusion at 2×MIR, LORR maintained 1 hour, Table E4
READOUT_KIND: Types and incidence of adverse reactions

CCOC(=O)c1c(Cl)ncn1[C@H](C)c1ccccc1 [Compound E100]: Tremor (3/6)
CCOC(=O)c1c(Cl)nc(Cl)n1[C@H](C)c1ccccc1 [Compound E129]: No
CC(=O)C(C)(C)OC(=O)c1c(F)ncn1[C@H](C)c1ccccc1 [Compound E6]: Tremor (4/6)
C=C=CC1(SC(=O)c2c(F)ncn2[C@H](C)c2ccccc2)CSC1 [Compound E90]: Tremor (2/6)

Form field: reported Types and incidence of adverse reactions of CC(OC(=O)c1c(F)ncn1C(C)c1ccccc1)=C1CCCC1=O (centres unmarked) [Compound E31]
Tremor (3/6)

Also, C[C@H](c1ccccc1)n1cnc(F)c1C(=O)OC(C)(C)C [Compound E12] please.
Tremor (2/6)

Also, C[C@H](c1ccccc1)n1cnc(F)c1C(=O)OC1(C)COC1 [Compound E38] please.
Tremor (3/6)

Also, C=C=CC1(OC(=O)c2c(F)ncn2[C@H](C)c2ccccc2)COC1 [Compound E37] please.
Tremor (2/6)

Also, C[C@H](c1ccccc1)n1c(Cl)nc(Cl)c1C(=O)OC1CSC1 [Compound E133] please.
Tremor (4/6)

====

Tested on: rats
Details: continuous tail vein infusion at 2×MIR, LORR maintained 1 hour, Table E4
READOUT_KIND: Types and incidence of adverse reactions

C=C=CC1(OC(=O)c2c(F)ncn2[C@H](C)c2ccccc2)CCC1 [Compound E64]: No

====

System: rats
Format: in vivo, rat
Details: rats of the MAP/HR figures, 2×ED50, tail vein; same value in min
READOUT_KIND: recovery time of the test animals' righting reflex (min)
Note: unit min is implicit; provide only the numeric part.

C[C@H](c1ccccc1)n1c(Cl)nc(Cl)c1C(=O)OC1CSC1: 2.30
C#CC(C)OC(=O)c1cncn1[C@H](C)c1ccccc1 (stereo partly drawn): 3.5
C[C@H](c1ccccc1)n1cncc1C(=O)OCC1(CO)CC1: 1.83
C=CCC1(OC(=O)c2cncn2[C@H](C)c2ccccc2)COC1: 5.92

Item `C[C@H](c1ccccc1)n1cnc(F)c1C(=O)OCC(C)(C)C` with rats - recovery time of the test animals' righting reflex?
1.57

Also, `C/C=C/C1(OC(=O)c2cncn2[C@H](C)c2ccccc2)COC1` please.
5.38

Also, `C=C=CC1(OC(=O)c2cncn2[C@H](C)c2ccccc2)COC1` please.
6.0

Also, C#CC1(OC(=O)c2cncn2[C@H](C)c2ccccc2)CCC1 [Compound D1] please.
13.08

Also, `CC(=O)C(C)(C)OC(=O)c1cncn1[C@H](C)c1ccccc1` please.
2.83
